For each of the compounds below, state its melting point.

Entry Cc1ccc2c(c1)SC(c1ccc(OCCCCBr)cc1)C(=O)N2C (stereo not drawn) : reported melting point = ?
75 to 76 °C

Find the recorded melting point belonging to CCOC(=O)c1cnc(CCOC)nc1O and report it.
115 to 118 °C

Suppose we examine the compound CCCCCCNC(=O)C#CBr ; what melting point value has been reported?
64 to 64.3 °C

Tell me the measured melting point of O=c1c(Cl)c(Cl)cnn1-c1ccc([N+](=O)[O-])cc1 , please.
221 °C

I am curious: what melting point value has been reported for COc1cc2c(cc1OC)CN(c1c(C)c(C)c3c(c1C)C(c1ccc(C(C)C)cc1)C(C)(C)O3)C2 (stereo not drawn) ?
153 to 155 °C

State the recorded melting point for this entry: CC(C)(C)OC(=O)CNC1(c2ccccc2Cl)C(=O)Nc2ccc(Cl)cc21 (stereo not drawn)
217 °C

Give the measured melting point of CCOC(=O)c1cnn(-c2c(Cl)cc(Cl)cc2Cl)c1C .
112 to 113 °C

Any idea what its melting point is? The compound is O=C(C1CCCCC1)C1CCN(C(=O)c2cc(O)c(O)c([N+](=O)[O-])c2)CC1
155 to 165 °C

Record request: melting point value, item CC1(C)CC(=O)c2c(S(C)(=O)=O)sc(C(=O)N3CCCC3)c2C1
161 °C

Consider the compound CC(C)(C)c1nc(N)n(-c2c(Cl)cc(C(F)(F)F)cc2Cl)n1 and give its measured melting point.
208 to 212 °C

Name the recorded melting point for COc1ccc([N+](=O)[O-])cc1C=C1COc2ccc(OCc3ccccc3)cc2C1=O .
156 to 157 °C

Which melting point value belongs to Cc1nc2cc(C)c(OCC(C)(C)CS(N)(=O)=O)nn2n1 ?
217 to 218 °C

Need melting point of OCc1ccc(/C=C/c2ccc[nH]2)cc1 , thanks.
186 to 189 °C

Would you kindly share the measured melting point for Cc1cccc(C)c1NC(=O)NC1(c2cccs2)CCCCC1 ?
220 to 222 °C

What does the data say about its melting point? Entry: Cc1ccc(-c2cncc(/C=C/C(=O)O)c2)cc1
208 to 211 °C

I'd like to know its melting point. The compound in question is O=C(O)c1ccc2c(c1)Cc1ccccc1CO2
240 to 244 °C

melting point lookup needed for COC(=O)[C@H](Cc1cncn1C)NC(=O)C(Cc1cccc2ccccc12)Cc1cccc2ccccc12 , thanks.
199 to 200 °C

I have this compound here, Nc1nc(NCCC2=CCCCC2)nc2c1ncn2C1OC(CO)C(O)C1O (stereo not drawn) , and I need its recorded melting point.
135 to 138 °C

Using the record for CCCCCCCCCCCCCCCCCCSc1ccc(C)cc1 , report its melting point.
54 to 55 °C

Which melting point is listed for CSc1ccc(-c2c(NN)nc(NN)nc2-c2ccccc2)cc1 ?
207 to 210 °C

I'd like to know its melting point. The compound in question is COc1ccnc(CCc2nc3cc(-c4ccc(S(=O)(=O)NCc5ccccc5)cc4)cnc3[nH]2)c1
211 to 212 °C

State the recorded melting point for this entry: CCOC(=O)Cc1ccc(-n2cccn2)cc1
49 °C

Can you share its melting point? I mean this compound: CC(C)(C)Nc1nc(Cl)c(C#N)cc1F
84 to 85 °C

Data provenance is a melting point compilation (Tetko et al.; mined from patent text by program, amines drawn as free bases though some values may be those of a salt).
